This section presents compounds with their documented normalized growth values.
Experiment: chemical genetic growth profiling, strain panel (AID 1159580);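 note: tested at 20 µM; growth read once vehicle control cultures reached saturation at 30 °C; 1 = growth at the plate median or of vehicle wells; lower values mean less growth of the strain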
Conditions: S. cerevisiae deletion strains, growth OD, locus YJL168C, strain set2, stronger effect = lower value
The whole screen tested about 5,500 compounds, of which about 2,000 (36%) were called active. About 18% were inconclusive and are not listed. The list shows a part of the results.
Answer with the value's number alone.

Before answering, review these 3 worked examples.
INSERT INTO measurements (compound, reported_measurement) VALUES
  ('COc1cccc(OC)c1OCCNCC1COc2ccccc2O1 (centres undefined)', 0.98),
  ('Nc1ccccc1C(=O)CC(N)C(=O)O (centres undefined)', 0.985),
  ('C[C@@H]1CC[C@H]2[C@@H](C)C(O)O[C@@H]3O[C@@]4(C)CC[C@@H]1[C@]32OO4 (some centres undefined)', 0.422);

Okay, next one:
Query: Give a short answer stating reported normalized growth for CC1C(=O)OC2C1CCC1(C)C=CC(=O)C3(C)OC213 (centres undefined) .
Result: 1.01
